For each entry below, report its IC50 value.
molecular target: PDE4B1 (Homo sapiens); construct: made in house; host or cells: SF21 insect cells (baculovirus; pCR-Bac vector); test: Inhibition of PDE4B1 activity (SPA, [3H]cAMP); type: biochemical; details: recombinant PDE4B1 expressed in SF21 cells; 0.5 pM [sic] cAMP; values given as bins; read-out: PDE4B1 inhibitory values measured as −logIC50 (converted)

# input What value of measured IC50 is listed for CCOc1cc2c(cc1OC)C(c1ccc(C(=O)N3CCC(n4c(=O)c5sc(-c6ccccc6)cc5n(Cc5nnn(CC)n5)c4=O)CC3)cc1)=N[C@@H]1CCS(=O)(=O)C[C@H]21 [Example 19] ?
# output > 10 nM

# input Quick one: IC50 for CCOc1cc2c(cc1OC)C(c1ccc(C(=O)N3CCC(n4c(=O)c5sc(-c6ccc(F)c(F)c6)cc5n(Cc5nc(CC)no5)c4=O)CC3)cc1)=N[C@@H]1CCSC[C@H]21 [Example 49] ?
# output 1 to 10 nM

# input Entry CCOc1cc2c(cc1OC)C(c1ccc(C(=O)N3CCC(n4c(=O)c5sc(-c6ccccc6)cc5n(Cc5nc(CSC)no5)c4=O)CC3)cc1)=N[C@@H]1CCSC[C@H]21 [Example 11] has what IC50?
# output 1 to 10 nM

# input What does the data say about its IC50? Entry: CCOc1cc2c(cc1OC)C(c1ccc(C(=O)N3CCC(n4c(=O)c5sc(-c6cc(OC)ccc6OC)cc5n(Cc5nnn(CC)n5)c4=O)CC3)cc1)=N[C@@H]1CCSC[C@H]21 [Example 36]
# output > 10 nM

# input Which IC50 is reported for this compound? CCOc1cc2c(cc1OC)C(c1ccc(C(=O)N3CCC(n4c(=O)c5sc(-c6ccccc6F)cc5n(Cc5nnn(CC)n5)c4=O)CC3)cc1)=N[C@@H]1CCSC[C@H]21 [Example 38]
# output > 10 nM

----------
Give measured IC50 for each item. Keep answers brief.
molecular target: human PDE5 (Homo sapiens, UniProt O76074); construct: from tissue; host or cells: human platelets from fresh donor blood (10,000 g supernatant of sonicated platelets); experiment: Inhibition of PDE5 activity (SPA, [3H]cGMP, platelet lysate); format: biochemical; conditions: PDE5 from human platelet lysate; values given as bins; read-out: PDE5A inhibitory values measured as −logIC50 (converted)

# input Query: IC50; subject: CCOc1cc2c(cc1OC)C(c1ccc(C(=O)N3CCC(n4c(=O)c5sc(-c6ccccc6)cc5n(Cc5nnnn5COC)c4=O)CC3)cc1)=N[C@@H]1CCSC[C@H]21
# output < 10 nM

# input Fill blank: measured IC50 of the compound CCOc1cc2c(cc1OC)C(c1ccc(C(=O)N3CCC(n4c(=O)c5sc(-c6cccc(F)c6F)cc5n(Cc5nnn(CC)n5)c4=O)CC3)cc1)=N[C@@H]1CCSC[C@H]21 is ____.
# output 10 to 100 nM

# input Form field: reported IC50 of CCOc1cc2c(cc1OC)C(c1ccc(C(=O)N3CCC(n4c(=O)c5sc(-c6cc(F)ccc6OC)cc5n(Cc5nnn(CC)n5)c4=O)CC3)cc1)=N[C@@H]1CCSC[C@H]21
# output 10 to 100 nM

----------
molecular target: PDE4B1 (Homo sapiens, UniProt Q07343); construct: made in house; host or cells: SF21 insect cells (baculovirus; pCR-Bac vector); experiment: Inhibition of PDE4B1 activity (SPA, [3H]cAMP); assay type: biochemical; conditions: recombinant PDE4B1 expressed in SF21 cells; 0.5 pM [sic] cAMP; values given as bins; read-out: PDE4B1 inhibitory values measured as −logIC50 (converted)
Sequence (Q07343 whole entry): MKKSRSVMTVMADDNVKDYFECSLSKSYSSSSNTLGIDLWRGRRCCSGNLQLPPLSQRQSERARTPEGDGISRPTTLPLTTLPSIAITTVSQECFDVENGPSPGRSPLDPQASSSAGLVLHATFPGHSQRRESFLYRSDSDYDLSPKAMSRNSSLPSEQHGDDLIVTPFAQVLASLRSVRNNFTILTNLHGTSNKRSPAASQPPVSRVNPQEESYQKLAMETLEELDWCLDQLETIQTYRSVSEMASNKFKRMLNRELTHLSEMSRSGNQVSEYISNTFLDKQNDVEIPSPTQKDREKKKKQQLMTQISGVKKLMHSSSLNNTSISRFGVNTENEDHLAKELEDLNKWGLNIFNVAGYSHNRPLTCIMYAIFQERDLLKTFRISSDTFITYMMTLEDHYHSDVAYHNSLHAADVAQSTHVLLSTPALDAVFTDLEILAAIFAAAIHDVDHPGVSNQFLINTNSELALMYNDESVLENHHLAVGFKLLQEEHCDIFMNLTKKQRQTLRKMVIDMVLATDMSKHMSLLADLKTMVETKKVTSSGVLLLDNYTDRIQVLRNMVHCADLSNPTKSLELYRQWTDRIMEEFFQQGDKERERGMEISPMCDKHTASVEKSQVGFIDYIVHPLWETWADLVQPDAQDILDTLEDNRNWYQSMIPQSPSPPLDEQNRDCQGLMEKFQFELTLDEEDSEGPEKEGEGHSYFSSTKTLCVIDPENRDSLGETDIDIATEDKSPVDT
PARAMETER: IC50

# input Which value of IC50 has been reported for CCOc1cc2c(cc1OC)C(c1ccc(C(=O)N3CCC(n4c(=O)c5sc(-c6ccc7c(c6)OCO7)cc5n(Cc5nc(CC)no5)c4=O)CC3)cc1)=N[C@@H]1CCSC[C@H]21 in the records?
# output 1 to 10 nM

# input Reported IC50, compound CCOc1cc2c(cc1OC)C(c1ccc(C(=O)N3CCC(n4c(=O)c5sc(-c6ccccc6)cc5n(Cc5ncc(CC)o5)c4=O)CC3)cc1)=N[C@@H]1CCSC[C@H]21 : ____
# output 1 to 10 nM

# input Looking for the measured IC50 of CCOc1cc2c(cc1OC)C(c1ccc(C(=O)N3CCC(n4c(=O)c5sc(-c6ccccc6)cc5n(Cc5nc(COC)no5)c4=O)CC3)cc1)=N[C@@H]1CCSC[C@H]21 , can you help?
# output 1 to 10 nM

# input Which measured IC50 value corresponds to CCOc1cc2c(cc1OC)C(c1ccc(C(=O)N3CCC(n4c(=O)c5sc(-c6ccccc6)cc5n(Cc5nc(CC)no5)c4=O)CC3)cc1)=N[C@@H]1CCSC[C@H]21 ?
# output 1 to 10 nM

# input Which IC50 reading was recorded for the compound CCOc1cc2c(cc1OC)C(c1ccc(C(=O)N3CCC(n4c(=O)c5sc(-c6ccccc6)cc5n(Cc5ncn(C)n5)c4=O)CC3)cc1)=N[C@@H]1CCSC[C@H]21 ?
# output < 1 nM

----------
biological target: human PDE5 (Homo sapiens, UniProt O76074); construct: from tissue; host or cells: human platelets from fresh donor blood (10,000 g supernatant of sonicated platelets); test: Inhibition of PDE5 activity (SPA, [3H]cGMP, platelet lysate); format: biochemical; conditions: PDE5 from human platelet lysate; values given as bins; read-out: PDE5A inhibitory values measured as −logIC50 (converted)
PARAMETER: IC50

# input Any idea what IC50 came out for CCOc1cc2c(cc1OC)C(c1ccc(C(=O)N3CCC(n4c(=O)c5sc(-c6ccccc6)cc5n(Cc5cnc(CC)o5)c4=O)CC3)cc1)=N[C@@H]1CCSC[C@H]21 on human PDE5 (Homo sapiens, UniProt O76074)?
# output 10 to 100 nM

# input Give human PDE5 (Homo sapiens, UniProt O76074) IC50 for CCOc1cc2c(cc1OC)C(c1ccc(C(=O)N3CCC(n4c(=O)c5sc(-c6ccccc6)cc5n(Cc5nnn(CC)n5)c4=O)CC3)cc1)=NC1CC[S+]([O-])CC21 (single isomer, unassigned)
# output < 10 nM

# input What IC50 appears in the records for this compound with human PDE5 (Homo sapiens, UniProt O76074)? CCOc1cc2c(cc1OC)C(c1ccc(C(=O)N3CCC(n4c(=O)c5sc(-c6ccccc6)cc5n(Cc5cc(C)on5)c4=O)CC3)cc1)=N[C@@H]1CCSC[C@H]21
# output 10 to 100 nM

----------
Would you mind telling me the reported IC50 of each entry?
biological target: human PDE5 (Homo sapiens, UniProt O76074); construct: from tissue; host or cells: human platelets from fresh donor blood (10,000 g supernatant of sonicated platelets); test: Inhibition of PDE5 activity (SPA, [3H]cGMP, platelet lysate); type: biochemical; details: PDE5 from human platelet lysate; values given as bins; read-out: PDE5A inhibitory values measured as −logIC50 (converted)

# input Please give the measured IC50 for this compound: CCOc1cc2c(cc1OC)C(c1cccc(C(=O)N3CCC(n4c(=O)c5sc(-c6ccccc6F)cc5n(Cc5nnn(CC)n5)c4=O)CC3)c1)=N[C@@H]1CCSC[C@H]21 [Example 39]
# output < 10 nM

# input Would you kindly share the measured IC50 for CCn1nnc(Cn2c(=O)n(C3CCN(C(=O)c4ccc(C5=N[C@@H]6CCSC[C@@H]6c6cc(OC)c(OC)cc65)cc4)CC3)c(=O)c3sc(-c4ccccc4)cc32)n1 [Example 59] ?
# output < 10 nM

# input Look up IC50 for this compound: CCOc1cc2c(cc1OC)C(c1ccc(C(=O)N3CCC(n4c(=O)c5sc(-c6ccccc6)cc5n(Cc5ncn(C)n5)c4=O)CC3)cc1)=N[C@@H]1CCSC[C@H]21 [Example 52]
# output > 100 nM

# input Tell me the measured IC50 of CCOc1cc2c(cc1OC)C(c1ccc(C(=O)N3CCC(n4c(=O)c5sc(-c6ccccc6)cc5n(Cc5nnc(CC)o5)c4=O)CC3)cc1)=N[C@@H]1CCSC[C@H]21 [Example 4] , please.
# output 10 to 100 nM

# input Looking for the measured IC50 of CCOc1cc2c(cc1OC)C(c1ccc(C(=O)N3CCC(n4c(=O)c5sc(-c6ccccc6)cc5n(Cc5ccc(CC)s5)c4=O)CC3)cc1)=N[C@@H]1CCSC[C@H]21 [Example 55] , can you help?
# output 10 to 100 nM

----------
target: human PDE5 (Homo sapiens); construct: from tissue; host or cells: human platelets from fresh donor blood (10,000 g supernatant of sonicated platelets); assay: Inhibition of PDE5 activity (SPA, [3H]cGMP, platelet lysate); assay type: biochemical; details: PDE5 from human platelet lysate; values given as bins; read-out: PDE5A inhibitory values measured as −logIC50 (converted)
PARAMETER: IC50

# input What value of IC50 has been recorded for this entry: CCCOCc1noc(Cn2c(=O)n(C3CCN(C(=O)c4ccc(C5=N[C@@H]6CCSC[C@@H]6c6cc(OCC)c(OC)cc65)cc4)CC3)c(=O)c3sc(-c4ccccc4)cc32)n1
# output > 100 nM

# input Look up IC50 for this compound: CCOc1cc2c(cc1OC)C(c1ccc(C(=O)N3CCC(n4c(=O)c5sc(-c6ccccc6)cc5n(Cc5nc(CSC)no5)c4=O)CC3)cc1)=N[C@@H]1CCSC[C@H]21
# output < 10 nM

# input Requested read-out: IC50. Entry: CCOc1cc2c(cc1OC)C(c1cccc(C(=O)N3CCC(n4c(=O)c5sc(-c6cc(F)ccc6OC)cc5n(Cc5nnn(CC)n5)c4=O)CC3)c1)=N[C@@H]1CCSC[C@H]21
# output < 10 nM

# input Using the record for CCOc1cc2c(cc1OC)C(c1ccc(C(=O)N3CCC(n4c(=O)c5sc(-c6ccccc6)cc5n(Cc5csc(C)n5)c4=O)CC3)cc1)=N[C@@H]1CCSC[C@H]21 , report its IC50.
# output > 100 nM

# input May I ask what IC50 has been recorded for CCOc1cc2c(cc1OC)C(c1cccc(C(=O)N3CCC(n4c(=O)c5sc(-c6ccc7c(c6)OCO7)cc5n(Cc5nnn(CC)n5)c4=O)CC3)c1)=N[C@@H]1CCSC[C@H]21 ?
# output < 10 nM

# input Need IC50, item CCOc1cc2c(cc1OC)C(c1ccc(C(=O)N3CCC(n4c(=O)c5sc(-c6ccccc6)cc5n(Cc5cc(CC)no5)c4=O)CC3)cc1)=N[C@@H]1CCSC[C@H]21
# output < 10 nM

# input I have this compound here, CCOc1cc2c(cc1OC)C(c1ccc(C(=O)N3CCC(n4c(=O)c5sc(-c6ccc(F)cc6OC)cc5n(Cc5nnn(CC)n5)c4=O)CC3)cc1)=N[C@@H]1CCSC[C@H]21 , and I need its recorded IC50.
# output < 10 nM

# input Returns the measured IC50 for the input compound. Input: CCOc1cc2c(cc1OC)C(c1ccc(C(=O)N3CCC(n4c(=O)c5sc(-c6ccc(F)cc6)cc5n(Cc5nnn(CC)n5)c4=O)CC3)cc1)=N[C@@H]1CCSC[C@H]21
# output < 10 nM

# input What value of IC50 has been recorded for this entry: CCOc1cc2c(cc1OC)C(c1ccc(C(=O)N3CCC(n4c(=O)c5sc(-c6ccc(F)cc6)cc5n(Cc5nc(CC)no5)c4=O)CC3)cc1)=N[C@@H]1CCSC[C@H]21
# output < 10 nM

# input Field request: IC50 | item: CCOc1cc2c(cc1OC)C(c1ccc(C(=O)N3CCC(n4c(=O)c5sc(-c6ccccc6)cc5n(Cc5cn(CC)nn5)c4=O)CC3)cc1)=N[C@@H]1CCSC[C@H]21
# output > 100 nM

# input So what's the measured IC50 for this one? CCOc1cc2c(cc1OC)C(c1ccc(C(=O)N3CCC(n4c(=O)c5sc(-c6ccc(F)cc6OC)cc5n(Cc5nc(COC)no5)c4=O)CC3)cc1)=N[C@@H]1CCSC[C@H]21
# output < 10 nM

# input Which IC50 value belongs to CCOc1cc2c(cc1OC)C(c1ccc(C(=O)N3CCC(n4c(=O)c5sc(-c6ccccc6)cc5n(Cc5ncc(C)s5)c4=O)CC3)cc1)=N[C@@H]1CCSC[C@H]21 ?
# output 10 to 100 nM

# input Need IC50 of CCOc1cc2c(cc1OC)C(c1ccc(C(=O)N3CCC(n4c(=O)c5sc(-c6ccccc6)cc5n(Cc5nc(CCCOC)no5)c4=O)CC3)cc1)=N[C@@H]1CCSC[C@H]21 , thanks.
# output 10 to 100 nM

# input IC50 lookup needed for CCOc1cc2c(cc1OC)C(c1ccc(C(=O)N3CCC(n4c(=O)c5sc(-c6ccccc6)cc5n(Cc5nccn5C)c4=O)CC3)cc1)=N[C@@H]1CCSC[C@H]21 , thanks.
# output > 100 nM

# input Could you share which IC50 value was measured for CCOc1cc2c(cc1OC)C(c1ccc(C(=O)N3CCC(n4c(=O)c5sc(-c6ccccc6)cc5n(Cc5ncc(CC)o5)c4=O)CC3)cc1)=N[C@@H]1CCSC[C@H]21 ?
# output < 10 nM

# input Look up IC50: CCOc1cc2c(cc1OC)C(c1ccc(C(=O)N3CCC(n4c(=O)c5sc(-c6ccccc6)cc5n(Cc5nnn(COC)n5)c4=O)CC3)cc1)=N[C@@H]1CCSC[C@H]21
# output < 10 nM

# input Requested field: IC50. Item: CCOc1cc2c(cc1OC)C(c1ccc(C(=O)N3CCC(n4c(=O)c5sc(-c6ccccc6)cc5n(Cc5nnn(CC)n5)c4=O)CC3)cc1)=N[C@@H]1CCSC[C@H]21
# output < 10 nM

# input Bench note: what IC50 did CCOc1cc2c(cc1OC)C(c1ccc(C(=O)N3CCC(n4c(=O)c5sc(-c6ccccc6)cc5n(Cc5cnn(CC)n5)c4=O)CC3)cc1)=N[C@@H]1CCSC[C@H]21 show?
# output 10 to 100 nM

# input Field request: IC50 | item: CCOc1cc2c(cc1OC)C(c1ccc(C(=O)N3CCC(n4c(=O)c5sc(-c6ccccc6)cc5n(Cc5nnn(CC)n5)c4=O)CC3)cc1)=N[C@@H]1CCS(=O)(=O)C[C@H]21
# output < 10 nM

# input // lookup IC50 for CCOc1cc2c(cc1OC)C(c1ccc(C(=O)N3CCC(n4c(=O)c5sc(-c6ccccc6)cc5n(Cc5ccn(CC)n5)c4=O)CC3)cc1)=N[C@@H]1CCSC[C@H]21
# output > 100 nM

# input Quick one: IC50 of CCOc1cc2c(cc1OC)C(c1ccc(C(=O)N3CCC(n4c(=O)c5sc(-c6ccc7c(c6)OCO7)cc5n(Cc5nc(CC)no5)c4=O)CC3)cc1)=N[C@@H]1CCSC[C@H]21 ?
# output < 10 nM
